IC50: recorded values
- Tested on: K562
- Assay procedure: Cytotoxicity against human K562 cells for 72 hrs under normoxic condition by MTT assay
- Type: functional, cell-based
- Study conditions: K562, 72 h
Measurement kind: IC50 (µM)

[[record]]
molecule = "[O-][n+]1nc(NCOCc2ccc(C(F)(F)F)cc2)[n+]([O-])c2ccccc21"
measurement_kind = "IC50"
endpoint_value = 18.3

[[record]]
molecule = "CCCOCNc1n[n+]([O-])c2ccccc2[n+]1[O-]"
measurement_kind = "IC50"
endpoint_value = 17.6

[[record]]
molecule = "COc1ccc2c(c1)[n+]([O-])nc(NCOCc1ccccc1)[n+]2[O-]"
measurement_kind = "IC50"
endpoint_value = 27.5

[[record]]
molecule = "COCNc1n[n+]([O-])c2ccccc2[n+]1[O-]"
measurement_kind = "IC50"
endpoint_value = 7.8

[[record]]
molecule = "CCCCOCNc1n[n+]([O-])c2ccccc2[n+]1[O-]"
measurement_kind = "IC50"
endpoint_value = 17.6

[[record]]
molecule = "CCCOCNc1n[n+]([O-])c2cc(OC)ccc2[n+]1[O-]"
measurement_kind = "IC50"
endpoint_value = 4.28

[[record]]
molecule = "CCCCCCCOCNc1n[n+]([O-])c2ccccc2[n+]1[O-]"
measurement_kind = "IC50"
endpoint_value = 2.97

[[record]]
molecule = "CCOCNc1n[n+]([O-])c2ccccc2[n+]1[O-]"
measurement_kind = "IC50"
endpoint_value = 15.4

[[record]]
molecule = "CC(OCNc1n[n+]([O-])c2ccccc2[n+]1[O-])c1ccccc1 (stereo unspecified)"
measurement_kind = "IC50"
endpoint_value = 8.72

[[record]]
molecule = "[O-][n+]1nc(NCOCc2ccc(Cl)cc2)[n+]([O-])c2ccccc21"
measurement_kind = "IC50"
endpoint_value = 3.26

[[record]]
molecule = "[O-][n+]1nc(NCOCc2ccccc2)[n+]([O-])c2ccccc21"
measurement_kind = "IC50"
endpoint_value = 16.1


###

- System: K562
- Assay procedure: Cytotoxicity against human K562 cells for 72 hrs under normoxic condition by MTT assay
- Assay type: functional, cell-based
- Study conditions: K562, 72 h
pIC50: −log10 of the molar value.
Could you label it Fulfilled if measured pIC50 is 5 or higher, and Not fulfilled otherwise?

[[record]]
compound = "CCCCCOCNc1n[n+]([O-])c2cc(OC)ccc2[n+]1[O-]"
label_value = "Fulfilled"

[[record]]
compound = "COc1ccc(COCNc2n[n+]([O-])c3ccccc3[n+]2[O-])cc1"
label_value = "Not fulfilled"

[[record]]
compound = "CCCCCOCNc1n[n+]([O-])c2ccccc2[n+]1[O-]"
label_value = "Not fulfilled"

[[record]]
compound = "O=[N+]([O-])c1cccc(COCNc2n[n+]([O-])c3ccccc3[n+]2[O-])c1"
label_value = "Fulfilled"

[[record]]
compound = "COc1ccc2c(c1)[n+]([O-])nc(NCOC(C)c1ccccc1)[n+]2[O-] (stereo not drawn)"
label_value = "Fulfilled"

[[record]]
compound = "Nc1n[n+]([O-])c2ccccc2[n+]1[O-]"
label_value = "Not fulfilled"


###

pIC50 reference
- Tested on: A549
- Assay procedure: Cytotoxicity against human A549 cells for 72 hrs under normoxic condition by MTT assay
- Type: functional, cell-based
- Study conditions: A549, 72 h
pIC50: −log10 of the molar value.
Measurement kind: pIC50

[[record]]
compound = "CC(OCNc1n[n+]([O-])c2ccccc2[n+]1[O-])c1ccccc1 (centres undefined)"
tgt = "A549"
measurement_kind = "pIC50"
endpoint_value = 5.57

[[record]]
compound = "CCCCCOCNc1n[n+]([O-])c2cc(OC)ccc2[n+]1[O-]"
tgt = "A549"
measurement_kind = "pIC50"
endpoint_value = 5.30

[[record]]
compound = "CCOCNc1n[n+]([O-])c2ccccc2[n+]1[O-]"
tgt = "A549"
measurement_kind = "pIC50"
endpoint_value = 4.98

[[record]]
compound = "CCCCOCNc1n[n+]([O-])c2ccccc2[n+]1[O-]"
tgt = "A549"
measurement_kind = "pIC50"
endpoint_value = 5.20

[[record]]
compound = "CCCOCNc1n[n+]([O-])c2ccccc2[n+]1[O-]"
tgt = "A549"
measurement_kind = "pIC50"
endpoint_value = 5.13

[[record]]
compound = "CCCCCOCNc1n[n+]([O-])c2ccccc2[n+]1[O-]"
tgt = "A549"
measurement_kind = "pIC50"
endpoint_value = 5.19

[[record]]
compound = "[O-][n+]1nc(NCOCc2ccc(Cl)cc2)[n+]([O-])c2ccccc21"
tgt = "A549"
measurement_kind = "pIC50"
endpoint_value = 5.83

[[record]]
compound = "Nc1n[n+]([O-])c2ccccc2[n+]1[O-] [TIRAPAZAMINE]"
tgt = "A549"
measurement_kind = "pIC50"
endpoint_value = 5.13

[[record]]
compound = "[O-][n+]1nc(NCOCc2ccccc2)[n+]([O-])c2ccccc21"
tgt = "A549"
measurement_kind = "pIC50"
endpoint_value = 4.97

[[record]]
compound = "CCCCCCCOCNc1n[n+]([O-])c2ccccc2[n+]1[O-]"
tgt = "A549"
measurement_kind = "pIC50"
endpoint_value = 5.58

[[record]]
compound = "[O-][n+]1nc(NCOCc2ccc(C(F)(F)F)cc2)[n+]([O-])c2ccccc21"
tgt = "A549"
measurement_kind = "pIC50"
endpoint_value = 5.07

[[record]]
compound = "COCNc1n[n+]([O-])c2ccccc2[n+]1[O-]"
tgt = "A549"
measurement_kind = "pIC50"
endpoint_value = 5.13

[[record]]
compound = "COc1ccc(COCNc2n[n+]([O-])c3ccccc3[n+]2[O-])cc1"
tgt = "A549"
measurement_kind = "pIC50"
endpoint_value = 5.12

[[record]]
compound = "CCCOCNc1n[n+]([O-])c2cc(OC)ccc2[n+]1[O-]"
tgt = "A549"
measurement_kind = "pIC50"
endpoint_value = 5.55


These measurements were taken from ChEMBL document CHEMBL1687888.
